assay: H1N1 influenza NS1A inhibitors, functional cell based assay (AID 504329)
assay_setup: percent inhibition, at 12.5 µM, hits give high values
In all, about 340,000 compounds went through this assay and about 1,000 (0.29%) were called active. Not all results are given here. Results with a measured potency or affinity are listed apart.
# reported inhibition; entries follow

structure_smiles	inhibition [%]
COc1ccccc1/C=N/NC(=O)C(=O)NCc1cccnc1	-1.04
NC(=O)COC(=O)/C=C/c1ccc(S(=O)(=O)N2CCCCCC2)cc1	5.4
CCOc1cc(Br)cc(/C=N/NC(=O)c2cccnc2)c1O	15.9
O=C(O)c1cccc(NC(=S)N/N=C/c2cccnc2)c1	4.47
CCOc1cc(/C=N/NC(=O)c2cccnc2)ccc1O	11.3
COc1ccc(N=c2sc3ccccc3n2C)cc1	1.52
Cn1c(=Nc2ccccc2)sc2ccccc21	9.39

====

# reported inhibition; entries follow
assay: H1N1 influenza NS1A inhibitors, functional cell based assay (AID 504329)
assay_setup: percent inhibition, at 12.5 µM, hits give high values
Hit rate of the full screen: of about 340,000 compounds, about 1,000 (0.29%) were called active. These entries were drawn from the full list. Entries with a potency or affinity are not part of this list.

compound	value_unit	inhibition
CCOC(=O)C(C#N)=C1CCN(Cc2ccccc2)CC1	%	-28.1
CN(C)c1ccc(N=Nc2ccccc2C(=O)OCC(=O)NCC2CCCCC2)cc1	%	8.64
COC(=O)c1cc(OC)c(OC)cc1NC(=O)C(C)Sc1ccc(C)cc1 (configuration not stated)	%	-9.85
Cc1ccccc1NC(NC(=O)c1cccnc1)C(Cl)(Cl)Cl (configuration not stated)	%	-5.69
CC1=C(C(=O)Nc2cc(C(=O)N3CCN(c4cccc(C)c4C)CC3)ccc2C)SCCO1	%	8.75
Nc1ccc2cn[nH]c2c1	%	0.77
CN(C)c1ccc(N=Nc2ccccc2C(=O)OCC(=O)N2CCCC2)cc1	%	22.2
CN(C)c1ccc(N=Nc2ccccc2C(=O)OCC(=O)Nc2ccccc2C(F)(F)F)cc1	%	28.2
CC(=O)c1ccc(NC(=S)Nc2ccc(Br)c(Cl)c2)cc1	%	-4.9
Cc1ccc(CCNC(=O)c2ccc(CS(=O)(=O)Cc3ccc(F)cc3)o2)cc1	%	2.69
Cc1ccccc1Nc1nc(-c2cccnc2)nc2ccccc12	%	-4.04
O=C(Cn1nnc(-c2ccccc2)n1)N/N=C/c1cc([N+](=O)[O-])ccc1O	%	0.1
COc1cc([N+](=O)[O-])cc(/C=N/NC(=O)Cn2nccc2C)c1O	%	13.5
CCCN1CCC(NC(=O)C2CCCCC2C(=O)O)CC1 (configuration not stated)	%	-9.23
Cc1cc(C)n(CC(=O)N/N=C/c2cc(Br)cc([N+](=O)[O-])c2O)n1	%	15.4
CN(C)c1ccc(N=Nc2ccccc2C(=O)OCC(=O)N(C)C2CCCCC2)cc1	%	10.8
O=C(O)c1cc(-c2cccc3ccccc23)nc2ccccc12	%	-1.69
O=C(NC1CCCC1)C1CCCN1C(=O)Nc1ccccc1 (configuration not stated)	%	7.61
COc1cc([N+](=O)[O-])cc(/C=N/NC(=O)Cn2nc(C)cc2C)c1O	%	-28.6
CN(C)C(=O)C(OC(=O)c1ccc2c(c1)CCCC2)c1ccccc1 (configuration not stated)	%	-4.12
Cn1c(CC(=O)Nc2ccccc2F)nnc1SCC(=O)NC1CCCC1	%	4.61
CCC(C)[C@H](NS(=O)(=O)c1ccc(C)cc1)C(=O)N1CCC(C(=O)N[C@H](C(=O)O)c2ccccc2)CC1 (some centres not stated)	%	-3.12

====

# reported inhibition; entries follow
assay: H1N1 influenza NS1A inhibitors, functional cell based assay (AID 504329)
assay_setup: percent inhibition, at 12.5 µM, hits give high values
Hit rate of the full screen: of about 340,000 compounds, about 1,000 (0.29%) were called active. Not all results are given here. Measured potencies and affinities stand elsewhere.
recorded_endpoint: inhibition (%)

structure_smiles	recorded_endpoint	data_value
COCCOC(=O)c1c(NC(=O)COC(=O)Cc2cccc(OC)c2)sc(C(N)=O)c1C	inhibition	6.16
CN(CC(=O)N1CCN(C2CCCCC2)CC1)S(=O)(=O)c1cccc2nsnc12	inhibition	0.79
Cc1ccc(S(=O)(=O)N[C@H](C(=O)OCC(=O)NC(=O)Nc2ccc3c(c2)OCCO3)C(C)C)cc1	inhibition	-8.36
O=C(NC1CCCCC1)c1c(O)nc2sccn2c1=O	inhibition	0.11
CCOC(=O)c1c(C)[nH]c(C(=O)OCc2ccc(F)cc2)c1C	inhibition	-5.78

====

assay: H1N1 influenza NS1A inhibitors, functional cell based assay (AID 504329)
assay_setup: percent inhibition, at 12.5 µM, hits give high values
The campaign covered roughly 340,000 compounds. About 1,000 (0.29%) were called active. Not all results are given here. Entries with a potency or affinity are not part of this list.
# reported inhibition; entries follow
recorded_endpoint: inhibition (%)

structure_smiles	value_unit	data_value
COc1ccc2[nH]c3c(=O)n4c(nc3c2c1)SCC4	%	-0.07
CCOc1c(Cl)cc(CNc2ccc(N3CCCC3)cc2)cc1OC	%	15.9
CC(=O)N(C)c1ccc(N2CCOCC2)c2c1C(=O)c1ccccc1C2=O	%	16.8
CCN(Cc1nc2cc(Cl)ccc2c(=O)[nH]1)C(=O)c1cc2c(s1)CCCCC2	%	-9.24
CCNc1ccccc(-c2ccc3ccccc3n2)c1=O	%	-10
Clc1ccc(CNc2ccc(N3CCN(Cc4ccccc4)CC3)cc2)cc1	%	20.5
CN(CC(=O)Nc1c(Cl)cccc1Cl)C(=O)CCC1CCCC1	%	-7.47
COc1ccc(NC(=O)CSc2n[nH]c(-c3ccco3)n2)cc1	%	-5.29
COc1cc(CNc2ccc(N3CCCC3)cc2)cc(Cl)c1OC	%	21.3
O=C(COc1ccccc1[N+](=O)[O-])N1CCN(C(=O)c2ccco2)CC1	%	8.66
CCc1ccc(NS(=O)(=O)c2c(C(=O)N3CCOCC3)c(C)n(C)c2C)cc1	%	0.85

====

assay: H1N1 influenza NS1A inhibitors, functional cell based assay (AID 504329)
assay_setup: percent inhibition, at 12.5 µM, hits give high values
The whole screen tested about 340,000 compounds, of which about 1,000 (0.29%) were called active. Only a sample is shown. Potency and affinity values are given separately.
recorded_endpoint: inhibition

compound	data_value
COc1cc2c(cc1OC)CN(c1nc(CN3CCOCC3)nc3sc4c(c13)CCCC4)CC2	4.39% (inactive)
CC(C)Cn1cnc2c(c1=N)C(c1ccccc1)C1=C(CC(C)(C)CC1=O)O2 (stereo not given)	0.81% (inactive)
Cc1[nH]c2ccccc2c1/C=N/n1cnnc1	-3.32% (inactive)
CCOc1ccccc1N1CC(C(=O)Nc2cc(S(C)(=O)=O)ccc2Cl)CC1=O (stereo not given)	-5.65% (inactive)
CC(=O)Nc1ccc(S(=O)(=O)N2CCN(c3ccc(C)c(Cl)c3)CC2)cc1	-15.9% (inactive)

====

assay: H1N1 influenza NS1A inhibitors, functional cell based assay (AID 504329)
assay_setup: percent inhibition, at 12.5 µM, hits give high values
Out of some 340,000 compounds screened, about 1,000 (0.29%) were called active. The list is a sample of the results. Potency and affinity values are given separately.
recorded_endpoint: inhibition (%)

compound	data_value
Cc1ccc(/C=C2\C(=O)NC(=S)N(c3ccccc3F)C2=O)s1	-6.98
COc1cc(/C=N/NC(=O)C2=NNC(=O)C2C)ccc1O (configuration not stated)	-32.2
Cc1ccc(NC2=C/C(=N/S(=O)(=O)c3cccs3)c3ccccc3C2=O)cc1	2.95
O=C1C=C(Nc2ccc(O)cc2)C(=O)c2ccccc21	24.1
O=C(COC(=O)C1(c2ccccc2)CC1)NNC(=O)c1ccccc1F	-15.8
Cc1ccccc1SCC(=O)NNC(=O)c1ccccc1O	-9.27
O=S(=O)(/N=C(/Nc1ccccc1)c1ccccc1)c1cccs1	-0.58
Cc1ccc(NC2=CC(=O)C(=O)c3ccccc32)c(C)c1	-11
O=C(OCCn1c(=S)sc2ccccc21)c1ccccc1	-0.85
O=C1/C(=C/c2cccs2)NC(=S)N1C1CC1	25.9
CCOC(=O)Cc1nnc(NC(=O)COc2ccc(F)cc2)s1	6.17
O=C(NNC(=O)C1CC=CCC1)c1ccccc1Cl (configuration not stated)	-13.4

====

# reported inhibition; entries follow
assay: H1N1 influenza NS1A inhibitors, functional cell based assay (AID 504329)
assay_setup: percent inhibition, at 12.5 µM, hits give high values
Out of some 340,000 compounds screened, about 1,000 (0.29%) were called active. A selection follows. Entries with a potency or affinity are not part of this list.

molecule	inhibition (%)
CCCOc1ccc(C(=O)NCCN2CCOCC2)cc1	-8.97
CCCCNC(=S)N/N=C/c1cccc(OCC)c1O	-0.5
O=C(CNS(=O)(=O)c1ccc(F)cc1)N1CCN(c2ccc(F)cc2)CC1	-9.78
O=C1/C(=C/c2ccc([N+](=O)[O-])cc2)C=C(c2ccccc2)N1c1ccccc1	16.3
COc1ccc(Oc2nc(-c3ccccn3)ncc2OC)cc1	7.31
COc1ccc(CC(=O)NC(C)c2nnc(SCC(=O)Nc3cc(C)ccc3OC)n2C)cc1 (stereo not drawn)	-9.49
O=C(O)c1cccc(N2C(=O)/C(=C/c3ccc([N+](=O)[O-])cc3)C=C2c2ccccc2)c1	15.9
CN1CCN(c2ccc(S(=O)(=O)N3CCCCC3)cc2NC(=O)COc2ccc(F)cc2)CC1	-7.14
S=C(NCCN1CCOCC1)N/N=C/c1ccccc1	4.1
O=C(NCCCN1CCOCC1)C(=O)N/N=C/c1ccccc1Cl	-2.62
Oc1cccc(/C=N/NC(=S)NCCN2CCOCC2)c1O	-11.6
COc1cccc(OC)c1C(=O)Nc1nnc(-c2ccc(F)cc2)s1	-7.27
Cc1cc(C)c(NC(=O)CS(=O)CC(=O)Nc2ccc(-n3cnnn3)c(C)c2)c(C)c1 (stereo not drawn)	-3.45
Cc1nc2ccccc2c2oc(C(=O)N3CCc4ccccc4C3)cc12	14.6
COc1ccc(C(=O)O/N=C(\N)c2ccc(Cl)cc2)cc1	2.64
COc1ccc(/C(O)=C2\C(=O)C(=O)N(CCN3CCOCC3)C2c2ccccc2OC)cc1 (stereo not drawn)	-5.93
CSCCC(NC(=O)c1ccccc1)C(=O)OCC(=O)Nc1ccc(C)c(Cl)c1 (stereo not drawn)	0.6
C/C(=N\NC(=O)c1cc(Br)ccc1O)c1cccs1	0.04
COc1ccc(C(=O)NCCc2nnc3ccc(SCC(=O)Nc4ccccc4)nn23)cc1	-20
CN(CC(=O)Nc1ccccc1C(=O)NC1CC1)Cc1ccc(N(C)C)cc1	0.15
COc1cnc(-c2ccccn2)nc1Sc1ccc(F)cc1	6.63
COc1cc(OC)c(OC)cc1/C=N/NC(=S)NCCN1CCOCC1	-3.02
COc1cccc(CNc2nc3nc(C)c(Cl)c(C)n3n2)c1	0.89
COc1ccc([C@@H]2CC=C(C(=O)O)[C@H](c3ccccc3)N2S(=O)(=O)c2ccccc2C)cc1	-3.46
N#Cc1ccc(C(=O)Nc2cccc3ccccc23)c(F)c1	4.06
O=C(CNS(=O)(=O)c1ccccc1)Nc1ccccc1Br	-10.4
COc1ccc(S(=O)(=O)CCC(=O)N2CC(=O)N(CCc3ccccc3)C(=O)C2)cc1	-13.4
Cc1cccc(NC(=S)Nc2ccccn2)c1	3.18
Cc1ccc(NC(=O)CC2S/C(=N/c3nccs3)N(C)C2=O)c(C)c1 (stereo not drawn)	2.84
C[C@H](CO)N1C[C@H](C)[C@@H](CN(C)S(=O)(=O)c2cccs2)Oc2ccc(NC(=O)c3ccncc3)cc2C1=O	-5.12
O=C(NCCCN1CCOCC1)C(=O)N/N=C/c1cccc2ccccc12	-23.6
CC(C)CN(C(=O)c1ccc(C(F)(F)F)cc1)c1c(N)n(CC(C)C)c(=O)[nH]c1=O	-4.85
Cc1c(NC(=S)N/N=C/c2cc([N+](=O)[O-])ccc2O)c(=O)n(-c2ccccc2)n1C	2.17
C/C(=N\NC(=S)Nc1cccc(C)c1)c1ccccc1	2.46
C/C(=N\NC(=O)c1cc2ccccc2cc1O)c1cccs1	-6
Cc1nc(C(F)(F)F)c(C(=O)N/N=C(\N)c2cccnc2)s1	-4.6
Cc1c(NC(=S)N/N=C/c2ccc(O)cc2)c(=O)n(-c2ccccc2)n1C	-9.33
Cc1noc(C)c1S(=O)(=O)N1CCC(C(=O)O)CC1	-5.05
CC1CCN(CCCNC(=O)c2cc3c(s2)-c2ccccc2OC3)CC1	-6.94
COc1cc(/C=N/NC(=S)NCCN2CCOCC2)ccc1O	-6.09
Clc1ccc(SCc2cc(N3CCOCC3)nc(-c3ccccn3)n2)cc1	-0.35
Cc1noc(C)c1NC(=O)N(C)C[C@H]1Oc2ccc(NC(=O)NC(C)C)cc2C(=O)N([C@H](C)CO)C[C@@H]1C	-14.8
COc1cnc(-c2ccccn2)nc1Oc1ccccc1	10.4
